Every entry's value here was drawn from PubChem BioAssay (EPA / NIEHS).

# Read-out: Macrophage colony-stimulating factor (MCSF), CSF1 (gene 1435)
# experiment summary: BSK_LPS_MCSF: BioMAP Diversity Plus: LPS Assay for Macrophage colony-stimulating factor (MCSF) Biomarker Activity (AID 2283083)
# reported conditions: primary human HUVEC with PBMC; actives raise or lower the signal
Calls of active or inactive are those of the source. How the source made its calls: active means hit-call score of the fitted dose curve at least 0.9, where 1 is the maximum; inactive means score below 0.9.
Outcome field: choose from 1 (active), -1 (inactive)

These recorded examples may help you get a feel for the data.
{"columns": ["compound", "category label"],
 "data": [
  ["C=C(F)C(=O)OC(C(F)(F)F)C(F)(F)F", -1],
  ["CC1=CC(C)C(C=O)C(C)C1 (stereo not drawn) (tested in a mixture with another compound)", -1],
  ["CCCCCCCCCC(=O)OCC", -1],
  ["CCCCCCCC1CCCC1=O (stereo not drawn)", -1],
  ["O=C(O)C(F)(F)C(F)(F)C(F)(F)C(F)(F)C(F)(F)C(F)(F)C(F)(F)C(F)F", -1]
]}

Answer briefly: the call reported for COC(=O)c1ccc(C(=O)OC)cc1 in this assay.
-1

* * *

# experiment summary: ATG_CRE_CIS: Attagene CIS-FACTORIAL HepG2 Assay for human cAMP Responsive Element (CRE) binding protein 3 (AID 2282926)
# reported conditions: HepG2 CRE cis-reporter, Attagene multiplexed mRNA; actives raise or lower the signal
Active and inactive are the calls of the source. How the source made its calls: active means hit-call score of the fitted dose curve at least 0.9, where 1 is the maximum; inactive means score below 0.9.
Outcome field: choose from true = active, false = inactive

Answer briefly: the call reported for OCCCO in this assay.
false

Answer briefly: the call reported for OC[C@@H](O)[C@H](O)[C@@H](O)[C@@H](O)CO in this assay.
false

Answer briefly: the call reported for CC(=O)CCC=C(C)CCC=C(C)C in this assay.
false

Answer briefly: the call reported for CCCCCC1CCC(=O)O1 (stereo unspecified) in this assay.
false

* * *

# experiment summary: ATG_NFI_CIS: Attagene CIS-FACTORIAL HepG2 Assay for human Nuclear Factor I (NFI) (AID 2282989)
# reported conditions: HepG2 cis-regulatory reporter, NFI response element transcription; actives raise or lower the signal
The source made the active and inactive calls. The calls were made as follows: active = hit-call score of the fitted dose curve at least 0.9, where 1 is the maximum; inactive = score below 0.9.
Outcome field: choose from active, inactive

These recorded examples may help you get a feel for the data.
{"columns": ["molecule", "category label"],
 "data": [
  ["CC(C)N1C(=O)c2ccccc2C1=O", "inactive"],
  ["CC(C)(C)C1CCC(O)CC1 (stereo not given)", "inactive"],
  ["COc1ccc(C(C)=O)cc1", "inactive"],
  ["CC(=O)CC(=O)N(C)C", "inactive"],
  ["CC/C=C\\CCOC(C)OCC (stereo not given)", "inactive"]
]}

Answer briefly: the call reported for CCCCCCCCCC(=O)OCC in this assay.
inactive

Answer briefly: the call reported for CC12CCC(C1)C(C)(C)C2O (stereo not given) in this assay.
inactive

Answer briefly: the call reported for CC(C)(C)c1cc(CCC(=O)OCCSCCOC(=O)CCc2cc(C(C)(C)C)c(O)c(C(C)(C)C)c2)cc(C(C)(C)C)c1O in this assay.
inactive

Answer briefly: the call reported for CNC(=C[N+](=O)[O-])NCCSCc1ccc(CN(C)C)o1 in this assay.
inactive

Answer briefly: the call reported for CC(=O)OCC=C(C)CCC=C(C)CCC=C(C)C in this assay.
active

* * *

# tested on: human RAR-related Orphan Receptor beta (RORb), RORB (gene 6096) (UniProt Q92753)
# Sequence (Q92753 whole entry, looked up): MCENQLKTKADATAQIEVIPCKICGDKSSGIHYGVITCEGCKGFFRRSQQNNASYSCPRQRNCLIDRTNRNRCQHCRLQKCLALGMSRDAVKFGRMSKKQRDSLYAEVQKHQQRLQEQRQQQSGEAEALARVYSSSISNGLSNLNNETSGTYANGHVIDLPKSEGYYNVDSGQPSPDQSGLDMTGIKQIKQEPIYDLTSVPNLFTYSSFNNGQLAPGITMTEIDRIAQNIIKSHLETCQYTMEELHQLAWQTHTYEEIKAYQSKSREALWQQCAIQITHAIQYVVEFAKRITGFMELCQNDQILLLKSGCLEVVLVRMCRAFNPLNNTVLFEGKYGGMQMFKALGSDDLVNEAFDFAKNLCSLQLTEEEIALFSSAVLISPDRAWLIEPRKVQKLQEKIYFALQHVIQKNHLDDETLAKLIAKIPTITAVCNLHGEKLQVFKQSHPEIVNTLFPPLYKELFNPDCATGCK
# experiment summary: ATG_RORb_TRANS: Attagene TRANS-FACTORIAL HepG2 Assay for human RAR-related Orphan Receptor beta (RORb) (AID 2283010)
Inconclusive results are not listed. The source made the active and inactive calls. Rule for the calls: active = hit-call score of the fitted dose curve at least 0.9, where 1 is the maximum; inconclusive = response in the unintended direction; inactive = score below 0.9.
recorded metric: outcome

Some solved cases for reference:
{"columns": ["compound", "outcome"],
 "data": [
  ["CCC(C)C1CCCCC1=O (stereo not given)", "inactive"],
  ["O=Cc1ccccc1O", "inactive"],
  ["CC1=C(C=O)C(C)(C)CCC1", "inactive"],
  ["C[C@]12CC[C@@H]3c4ccc(O)cc4CC[C@H]3[C@@H]1CC[C@@H]2O", "inactive"],
  ["O=S(=O)(O)c1cc(S(=O)(=O)O)c2c(N=Nc3ccccc3)c(O)ccc2c1", "inactive"]
]}

Answer for every listed entry: what is its outcome? The entries follow.
1. CC(O)CNCC(C)O (stereo not given)
2. CC/C=C\CCCCO
3. CCCC[N+](C)(CCCC)CCCC
4. Cc1cc(O)c(C)c(C)c1O

inactive
inactive
inactive
inactive

* * *

# tested on: human Peroxisome Proliferator-activated Receptor alpha (PPARa), PPARA (gene 5465)
# experiment summary: ATG_PPARa_TRANS: Attagene TRANS-FACTORIAL HepG2 Assay for human Peroxisome Proliferator-activated Receptor alpha (PPARa) (AID 2283001)
Inconclusive results are not listed. Active and inactive are the calls of the source. Rule for the calls: active = hit-call score of the fitted dose curve at least 0.9, where 1 is the maximum; inconclusive = response in the unintended direction; inactive = score below 0.9.
Outcome field: choose from TRUE (active), FALSE (inactive)

These recorded examples may help you get a feel for the data.
{"columns": ["compound", "category label"],
 "data": [
  ["CC(O)COCC(C)O (centres undefined)", "FALSE"],
  ["CN(C)CCC=C1c2ccccc2CCc2ccccc21", "FALSE"]
]}

Answer briefly: the call reported for C=CCOC(=O)/C=C\C(=O)OCC=C in this assay.
TRUE

Answer briefly: the call reported for C=CC(O)CCCCC (centres undefined) in this assay.
FALSE

Answer briefly: the call reported for CC(C)=CCCC(C)=CC(=O)O in this assay.
FALSE

Answer briefly: the call reported for NNC(=O)OCc1ccccc1 in this assay.
FALSE

Answer briefly: the call reported for OCCN1CCOCC1 in this assay.
FALSE

Answer briefly: the call reported for CCCC(O)C(CC)CO (centres undefined) in this assay.
FALSE

Answer briefly: the call reported for CCc1cccc(O)c1 in this assay.
FALSE

* * *

# tested on: Estrogen receptor (Homo sapiens) (UniProt P03372)
# Sequence (P03372 whole entry, looked up): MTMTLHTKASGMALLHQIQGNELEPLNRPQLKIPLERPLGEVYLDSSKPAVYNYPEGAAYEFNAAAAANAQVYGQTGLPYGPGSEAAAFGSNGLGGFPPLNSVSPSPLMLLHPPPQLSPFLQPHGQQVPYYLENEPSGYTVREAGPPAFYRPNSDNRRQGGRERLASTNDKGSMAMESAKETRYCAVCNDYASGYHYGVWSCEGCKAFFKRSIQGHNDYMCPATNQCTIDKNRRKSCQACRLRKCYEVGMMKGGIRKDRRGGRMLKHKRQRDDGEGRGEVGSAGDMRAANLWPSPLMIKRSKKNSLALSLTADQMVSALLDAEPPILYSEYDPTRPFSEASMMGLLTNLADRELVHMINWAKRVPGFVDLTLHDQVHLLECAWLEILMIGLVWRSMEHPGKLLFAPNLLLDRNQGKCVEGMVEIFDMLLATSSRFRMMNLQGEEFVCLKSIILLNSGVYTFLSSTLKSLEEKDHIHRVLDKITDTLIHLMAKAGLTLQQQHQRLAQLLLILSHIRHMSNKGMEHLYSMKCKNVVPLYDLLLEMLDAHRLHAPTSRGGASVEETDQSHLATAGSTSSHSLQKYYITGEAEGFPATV
# experiment summary: OT_ER_ERaERa_1440: Odyssey Thera (OT) 24-hour HEK293T Protein-Complementation Assay for Estrogen Receptor-alpha/-alpha Homodimer (AID 2283349);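 further: hits raise fluorescence above DMSO for agonists and antagonists alike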
The source made the active and inactive calls. Rule for the calls: active = hit-call score of the fitted dose curve at least 0.9, where 1 is the maximum; inconclusive = response in the unintended direction; inactive = score below 0.9.
Outcome field: choose from 1 (yes) = active, 0 (no) = inactive

{"columns": ["compound", "category label"],
 "data": [
  ["COc1ccccc1O", "0 (no)"],
  ["C=C(C)C(=O)OCCC(C)OC(=O)C(=C)C (configuration not stated)", "0 (no)"]
]}

Answer briefly: the call reported for CCCCCCOc1ccc(O)cc1 in this assay.
1 (yes)

Answer briefly: the call reported for CCC(C)(C)C1CCC(=O)CC1 in this assay.
0 (no)

Answer briefly: the call reported for CCCCCCCCCCO[C@@H]1O[C@H](CO)[C@@H](O)[C@H](O)[C@H]1O in this assay.
0 (no)

Answer briefly: the call reported for CCCCCC1CCC(=O)O1 (configuration not stated) in this assay.
0 (no)

Answer briefly: the call reported for CN1CCc2cccc3c2[C@H]1Cc1ccc(O)c(O)c1-3 in this assay.
0 (no)

* * *

# tested on: Glucocorticoid receptor (Homo sapiens) (UniProt P04150)
# Sequence (P04150 whole entry, looked up): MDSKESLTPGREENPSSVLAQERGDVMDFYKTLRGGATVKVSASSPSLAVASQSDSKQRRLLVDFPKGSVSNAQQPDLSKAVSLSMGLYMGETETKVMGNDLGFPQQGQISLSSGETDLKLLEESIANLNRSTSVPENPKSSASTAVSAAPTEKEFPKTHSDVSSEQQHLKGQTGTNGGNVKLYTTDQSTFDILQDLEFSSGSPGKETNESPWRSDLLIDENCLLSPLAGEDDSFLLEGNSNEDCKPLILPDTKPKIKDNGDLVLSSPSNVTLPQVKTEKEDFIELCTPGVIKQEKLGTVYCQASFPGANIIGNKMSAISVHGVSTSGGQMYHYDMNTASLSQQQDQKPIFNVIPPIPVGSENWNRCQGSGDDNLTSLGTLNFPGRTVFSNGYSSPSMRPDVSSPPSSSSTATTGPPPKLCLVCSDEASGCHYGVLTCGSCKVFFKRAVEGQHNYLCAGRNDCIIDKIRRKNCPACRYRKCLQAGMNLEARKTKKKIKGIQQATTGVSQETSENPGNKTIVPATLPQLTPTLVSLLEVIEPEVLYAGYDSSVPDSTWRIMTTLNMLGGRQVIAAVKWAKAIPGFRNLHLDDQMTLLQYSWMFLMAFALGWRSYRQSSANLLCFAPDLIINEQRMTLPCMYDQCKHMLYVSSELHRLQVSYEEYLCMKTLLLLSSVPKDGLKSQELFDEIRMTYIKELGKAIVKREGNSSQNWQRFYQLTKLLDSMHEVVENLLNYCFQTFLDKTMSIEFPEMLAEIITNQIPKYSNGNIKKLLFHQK
# experiment summary: NVS_NR_hGR: NovaScreen (NVS) Nuclear Receptor Binding Assay for human Glucocorticoid Receptor (GR) (AID 2283363);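 on AC50: activity is loss of specific radioligand binding signal relative to DMSO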
Inconclusive results are not listed. Active and inactive are the calls of the source. How the source made its calls: active means hit-call score of the fitted dose curve at least 0.9, where 1 is the maximum; inconclusive means response in the unintended direction; inactive means score below 0.9.
recorded metric: AC50

Some solved cases for reference:
{"columns": ["record smiles", "AC50"],
 "data": [
  ["c1ccc2c(c1)-c1ccc3ccc4cccc5cc-2c1c3c45", "inactive"],
  ["CCCCCC(=O)O[C@]1(C(C)=O)CC[C@H]2[C@@H]3CCC4=CC(=O)CC[C@]4(C)[C@H]3CC[C@@]21C", "0.0187 µM (active)"],
  ["O=C(c1ccc(OCCN2CCCCC2)cc1)c1c(-c2ccc(O)cc2)sc2cc(O)ccc12", "6.7 µM (active) [middle of 4 runs]"],
  ["C=CC(=O)OCC(CO)(COC(=O)C=C)COC(=O)C=C", "4.96 µM (active)"],
  ["CCCCCCCCCCOC(=O)c1ccccc1C(=O)OCCCCCCCC", "inactive"]
]}

Answer for every listed entry: what is its AC50? The entries follow.
1. O=C1OC2(c3ccc(O)cc3Oc3cc(O)ccc32)c2ccccc21
2. CC1(C)CC(=O)CC(C)(C)N1

["25 µM (active)", "inactive"]

* * *

# tested on: Aryl hydrocarbon receptor (Homo sapiens)
# experiment summary: ATG_Ahr_CIS: Attagene CIS-FACTORIAL HepG2 Assay for human Aryl Hydrocarbon Receptor (Ahr) (AID 2282930)
# reported conditions: HepG2 AhR cis-factorial reporter transcription; actives raise or lower the signal
Calls of active or inactive are those of the source. The calls were made as follows: active = hit-call score of the fitted dose curve at least 0.9, where 1 is the maximum; inactive = score below 0.9.
Outcome field: choose from active, inactive

Answer briefly: the call reported for CC1(C)[C@H](C=C(Cl)Cl)[C@H]1C(=O)OCc1cccc(Oc2ccccc2)c1 in this assay.
inactive

Answer briefly: the call reported for CCCCCCCCCC(=O)OCC in this assay.
active

Answer briefly: the call reported for CCCOC(=O)CC in this assay.
inactive

Answer briefly: the call reported for CC(=O)c1ccc2ccccc2c1 in this assay.
active

Answer briefly: the call reported for CCCCCCCOC(C)=O in this assay.
inactive

Answer briefly: the call reported for O=S(=O)(O)c1cc(S(=O)(=O)O)c2c(N=Nc3ccccc3)c(O)ccc2c1 in this assay.
inactive

Answer briefly: the call reported for CC(C)CCCC(C)(C)O in this assay.
inactive
